Below, each of the compounds is paired with its reported normalized growth value.
test summary: chemical genetic growth profiling, strain panel (AID 1159580);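 further: tested at 20 µM; growth read once vehicle control cultures reached saturation at 30 °C; 1 = growth at the plate median or of vehicle wells; lower values mean less growth of the strain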
measurement context: S. cerevisiae deletion strains, growth OD, locus YER002W, strain NOP16, active compounds read low
Hit rate of the full screen: of about 5,500 compounds, about 2,000 (36%) were called active. About 18% were inconclusive and are not listed. The list shows a part of the results.
Form: value (number only, do not type unit).

- compound: "N[C@H](CCC(=O)NCS(=O)(=O)O)C(=O)O"
  numeric readout: 1.02
- compound: "COc1ccccc1N1CCN(CCN(C(=O)c2ccc(I)cc2)c2ccccn2)CC1"
  numeric readout: 1.01
- compound: "CN1CCCC1c1cccnc1 (centres undefined)"
  numeric readout: 0.994

Given CC(C)NCC(O)COc1ccc(CCOCC2CC2)cc1 (centres undefined) , state its recorded normalized growth.
1.03

Data provenance is PubChem BioAssay AID1159580.
